# ASSAY_SETUP: in DMSO, 293.15 K
QUANTITY_MEASURED: solubility (mole fraction)
Would you mind answering with just the numeric figure?

Input line: Please give the measured solubility (mole fraction) for this molecule: O=C(OCC1c2ccccc2-c2ccccc21)ON1C(=O)CCC1=O
Output line: 0.00499

* * *

# ASSAY_SETUP: in ethanol, 298.15 K
QUANTITY_MEASURED: solubility (mole fraction)

Input line: Please give the measured solubility (mole fraction) for this compound: O=C(OCC1c2ccccc2-c2ccccc21)ON1C(=O)CCC1=O
Output line: 0.000824

* * *

# ASSAY_SETUP: in water, 303.15 K
QUANTITY_MEASURED: solubility (mole fraction)
Would you mind answering with just the numeric figure?

Input line: Please give the measured solubility (mole fraction) for this molecule: O=C(OCC1c2ccccc2-c2ccccc21)ON1C(=O)CCC1=O
Output line: 9.44e-06
